Where do the numbers come from? From ChEMBL document CHEMBL3397044.

measured_target: Orexin/Hypocretin receptor type 1 (Homo sapiens)
Sequence (whole entry): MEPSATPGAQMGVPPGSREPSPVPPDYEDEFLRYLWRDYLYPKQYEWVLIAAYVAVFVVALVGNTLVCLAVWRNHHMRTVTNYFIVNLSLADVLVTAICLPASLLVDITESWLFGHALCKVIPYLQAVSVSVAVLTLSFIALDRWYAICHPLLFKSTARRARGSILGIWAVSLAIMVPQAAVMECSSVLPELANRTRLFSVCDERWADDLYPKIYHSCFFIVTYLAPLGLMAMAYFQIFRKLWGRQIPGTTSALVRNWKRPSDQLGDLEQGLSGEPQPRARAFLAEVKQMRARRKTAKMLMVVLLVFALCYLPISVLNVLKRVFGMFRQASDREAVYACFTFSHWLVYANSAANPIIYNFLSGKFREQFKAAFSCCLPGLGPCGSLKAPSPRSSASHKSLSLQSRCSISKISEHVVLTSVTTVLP
experiment: Antagonist activity against human OX1 receptor expressed in CHO cells assessed as reduction in [Ala6,12]orexin-A-induced intracellular Ca2+ mobilization incubated for 30 mins by Fluo-4 AM dye based fluorescence assay
Format: functional, cell-based
# cutoff 2 nM applies to Kb; >= gives fulfilled, < gives not fulfilled

Query: Decide: is the reported value of Kb for "CCN(CCc1cc(-c2ccc(F)cn2)no1)C(=O)c1cc(C)ccc1-n1nccn1" equal to or greater than 2 nM?
Response: fulfilled

Query: Moving on to "CCN(CCc1noc(-c2ccc(F)cn2)n1)C(=O)c1cc(C)ccc1-n1nccn1"
Response: fulfilled

Query: Moving on to "Cc1ccc(-n2nccn2)c(C(=O)N(C)CCn2ccc(-c3ccc(F)cn3)n2)c1"
Response: fulfilled

Query: Moving on to "CCN(CCn1ccc(-c2ccc(F)cn2)n1)C(=O)c1cc(F)ccc1-n1nccn1"
Response: fulfilled

Query: Moving on to "CCN(CCn1ccc(-c2ccc(F)cn2)n1)C(=O)c1cc(C)ccc1-n1nccn1"
Response: not fulfilled

Query: Moving on to "CCN(CCn1cc(-c2ccc(F)cn2)cn1)C(=O)c1cc(C)ccc1-n1nccn1"
Response: fulfilled

Query: Moving on to "CCN(CCn1ccc(-c2ccc(F)cn2)n1)C(=O)c1cc(Cl)ccc1-n1nccn1"
Response: not fulfilled

Query: Moving on to "CCN(CCc1cc(-c2ccc(F)cn2)on1)C(=O)c1cc(C)ccc1-n1nccn1"
Response: fulfilled

----------
experiment: Solubility in pH 6.8 phosphate buffer
Format: physicochemical
assay_readout: solubility (µg/mL)
Give just the number in µg/mL; leave the unit off.

Query: Consider the compound "CCN(CCn1ccc(-c2ccc(F)cn2)n1)C(=O)c1ccccc1-n1nccn1" and give its measured solubility.
Response: 30.2

----------
experiment: Volume of distribution in Sprague-Dawley rat at 2 mg/kg, iv
Format: ADME, organism-based
Parameters: dose 2 mg/kg, route intravenous
condition_parameters: in vivo
assay_readout: Vd (L/kg)
Give just the number in L/kg; leave the unit off.

Query: Consider the compound "CCN(CCn1ccc(-c2ccc(F)cn2)n1)C(=O)c1ccccc1-n1nccn1" and give its measured Vd.
Response: 1.71

Query: Moving on to "CCN(CCn1ccc(-c2ccc(F)cn2)n1)C(=O)c1cc(C)ccc1-c1ncccn1"
Response: 1.79

----------
experiment: Ratio of drug level in CSF to plasma in Sprague-Dawley rat at 30 mg/kg, ip
Assay type: ADME, organism-based
Parameters: dose 30 mg/kg, route intraperitoneal
assay_readout: Kp
Answer using only a numeral; do not append any unit.

Query: Consider the compound "CCN(CCn1ccc(-c2ccc(F)cn2)n1)C(=O)c1cc(C)ccc1-c1ncccn1" and give its measured Kp.
Response: 0.03

----------
experiment: Drug excretion in rat bile
Format: ADME, tissue-based
condition_parameters: read-out: Drug excretion
assay_readout: dose excreted (%)
Give just the number in %; leave the unit off.

Query: Consider the molecule "CCN(CCn1ccc(-c2ccc(F)cn2)n1)C(=O)c1ccccc1-n1nccn1" and give its measured dose excreted.
Response: 0.2

----------
experiment: Drug metabolism in rat liver microsomes at 5 uM after 15 mins
Assay type: ADME
condition_parameters: read-out: Drug metabolism
assay_readout: metabolised at 0.25 h, 5 µM (%)
Give just the number in %; leave the unit off.

Query: Consider the molecule "CCN(CCn1ccc(-c2ccc(F)cn2)n1)C(=O)c1cc(C)ccc1-c1ncccn1" and give its measured metabolised at 0.25 h, 5 µM.
Response: 97.3

Query: Moving on to "CCN(CCn1ccc(-c2ccc(F)cn2)n1)C(=O)c1ccccc1-n1nccn1"
Response: 79.9

----------
measured_target: Orexin/Hypocretin receptor type 1 (Homo sapiens)
experiment: Antagonist activity against human OX1 receptor expressed in CHO cells assessed as reduction in [Ala6,12]orexin-A-induced intracellular Ca2+ mobilization incubated for 30 mins by Fluo-4 AM dye based fluorescence assay
Format: functional, cell-based
# cutoff 0.04 µM applies to Kb; >= gives rule met, < gives rule not met

Query: Decide: is the reported value of Kb for "CCN(CCn1ccc(-c2cc(C(F)(F)F)ccn2)n1)C(=O)c1cc(C)ccc1-n1nccn1" equal to or greater than 0.04 µM?
Response: rule not met

Query: Moving on to "CCN(CCn1ccc(-c2ccc(C(F)(F)F)cn2)n1)C(=O)c1cc(C)ccc1-n1nccn1"
Response: rule met

Query: Moving on to "Cc1ccc(-n2nccn2)c(C(=O)NCCn2ccc(-c3ccc(F)cn3)n2)c1"
Response: rule met

Query: Moving on to "CCN(CCn1ccc(-c2ccc(F)cc2)n1)C(=O)c1cc(C)ccc1-n1nccn1"
Response: rule not met

Query: Moving on to "Cc1ccc(-n2nccn2)c(C(=O)N(CCn2ccc(-c3ccc(F)cn3)n2)C(C)C)c1"
Response: rule not met

Query: Moving on to "CCN(CCn1ccc(-c2ccc(F)cn2)n1)C(=O)c1cc(OC)ccc1-n1nccn1"
Response: rule met

Query: Moving on to "CCN(CCn1ccc(-c2ccc(F)cn2)n1)C(=O)c1cc(C)ccc1-c1ncccn1"
Response: rule not met

Query: Moving on to "CCN(CCn1ccc(-c2cccc(C)n2)n1)C(=O)c1cc(C)ccc1-n1nccn1"
Response: rule not met

Query: Moving on to "CCN(CCn1ccc(-c2cccc(C(F)(F)F)n2)n1)C(=O)c1cc(C)ccc1-n1nccn1"
Response: rule not met

----------
experiment: Tmax in Sprague-Dawley rat at 10 mg/kg, po
Format: ADME, organism-based
Set-up: dose 10 mg/kg, route oral
condition_parameters: in vivo
assay_readout: Tmax (min)
Give just the number in min; leave the unit off.

Query: Consider the compound "CCN(CCn1ccc(-c2ccc(F)cn2)n1)C(=O)c1ccccc1-n1nccn1" and give its measured Tmax.
Response: 50

----------
experiment: Tmax in Sprague-Dawley rat at 30 mg/kg, po
Format: ADME, organism-based
Parameters: dose 30 mg/kg, route oral
condition_parameters: in vivo
assay_readout: Tmax
Units required after the number.

Query: Consider the compound "CCN(CCn1ccc(-c2ccc(F)cn2)n1)C(=O)c1cc(C)ccc1-c1ncccn1" and give its measured Tmax.
Response: 40 min

----------
Provide the recorded half-life for the entries that follow.
experiment: Half life in Sprague-Dawley rat at 2 mg/kg, iv
Format: ADME, organism-based
Design: dose 2 mg/kg, route intravenous
condition_parameters: in vivo
Give just the number in min; leave the unit off.

Query: Consider the molecule "CCN(CCn1ccc(-c2ccc(F)cn2)n1)C(=O)c1ccccc1-n1nccn1" and give its measured half-life.
Response: 17.9

Query: Moving on to "CCN(CCn1ccc(-c2ccc(F)cn2)n1)C(=O)c1cc(C)ccc1-c1ncccn1"
Response: 19.1

----------
Provide the recorded Vd for the entries that follow.
experiment: Volume of distribution in dog at 0.5 mg/kg, iv
Type: ADME, organism-based, Canis lupus familiaris
Set-up: dose 0.5 mg/kg, route intravenous
condition_parameters: in vivo
Give just the number in L/kg; leave the unit off.

Query: Consider the compound "CCN(CCn1ccc(-c2ccc(F)cn2)n1)C(=O)c1cc(C)ccc1-c1ncccn1" and give its measured Vd.
Response: 1.29

Query: Moving on to "CCN(CCn1ccc(-c2ccc(F)cn2)n1)C(=O)c1ccccc1-n1nccn1"
Response: 0.745

----------
measured_target: Orexin receptor type 2 (Homo sapiens)
experiment: Antagonist activity against human OX2 receptor expressed in CHO cells assessed as reduction in [Ala6,12]orexin-A-induced intracellular Ca2+ mobilization incubated for 30 mins by Fluo-4 AM dye based fluorescence assay
Format: functional, cell-based
Threshold check on Kb: strictly below 20 nM is t; on or above 20 nM is f.

Query: Determine if "CCN(CCn1ccc(-c2ccc(F)cn2)n1)C(=O)c1cc(OC)ccc1-n1nccn1" shows Kb strictly lower than 20 nM.
Response: f

Query: Moving on to "CCN(CCc1cc(-c2ccc(F)cn2)no1)C(=O)c1cc(C)ccc1-n1nccn1"
Response: f

Query: Moving on to "CCN(CCn1cc(-c2ccc(F)cn2)cn1)C(=O)c1cc(C)ccc1-n1nccn1"
Response: t

Query: Moving on to "CCN(CCn1ccc(-c2ccc(F)cn2)n1)C(=O)c1cc(F)ccc1-n1nccn1"
Response: t

Query: Moving on to "CCN(CCn1ccc(-c2ccc(F)cn2)n1)C(=O)c1cc(Cl)ccc1-n1nccn1"
Response: t

Query: Moving on to "CCN(CCn1ccc(-c2cccc(C)n2)n1)C(=O)c1cc(C)ccc1-n1nccn1"
Response: t

Query: Moving on to "CCN(CCc1noc(-c2ccc(F)cn2)n1)C(=O)c1cc(C)ccc1-n1nccn1"
Response: f

Query: Moving on to "CCN(CCn1ccc(-c2ccc(F)cn2)n1)C(=O)c1cc(C)ccc1-c1ncccn1"
Response: t

Query: Moving on to "Cc1ccc(-n2nccn2)c(C(=O)N(C)CCn2ccc(-c3ccc(F)cn3)n2)c1"
Response: t

Query: Moving on to "CCN(CCn1ccc(-c2cccc(C(F)(F)F)n2)n1)C(=O)c1cc(C)ccc1-n1nccn1"
Response: t

Query: Moving on to "Cc1ccc(-n2nccn2)c(C(=O)NCCn2ccc(-c3ccc(F)cn3)n2)c1"
Response: f

Query: Moving on to "CCN(CCn1ccc(-c2ccc(F)cn2)n1)C(=O)c1cc(C)ccc1-n1nccn1"
Response: t

Query: Moving on to "Cc1ccc(-n2nccn2)c(C(=O)N(CCn2ccc(-c3ccc(F)cn3)n2)C(C)C)c1"
Response: f

Query: Moving on to "CCN(CCn1ccc(-c2ccc(C(F)(F)F)cn2)n1)C(=O)c1cc(C)ccc1-n1nccn1"
Response: f

Query: Moving on to "CCN(CCn1ccc(-c2cc(C(F)(F)F)ccn2)n1)C(=O)c1cc(C)ccc1-n1nccn1"
Response: f

Query: Moving on to "CCN(CCn1ccc(-c2ccc(F)cc2)n1)C(=O)c1cc(C)ccc1-n1nccn1"
Response: t
